- study system: adenosine A2B receptor (Homo sapiens (Human), UniProt P29275)
- Sequence (P29275 whole entry): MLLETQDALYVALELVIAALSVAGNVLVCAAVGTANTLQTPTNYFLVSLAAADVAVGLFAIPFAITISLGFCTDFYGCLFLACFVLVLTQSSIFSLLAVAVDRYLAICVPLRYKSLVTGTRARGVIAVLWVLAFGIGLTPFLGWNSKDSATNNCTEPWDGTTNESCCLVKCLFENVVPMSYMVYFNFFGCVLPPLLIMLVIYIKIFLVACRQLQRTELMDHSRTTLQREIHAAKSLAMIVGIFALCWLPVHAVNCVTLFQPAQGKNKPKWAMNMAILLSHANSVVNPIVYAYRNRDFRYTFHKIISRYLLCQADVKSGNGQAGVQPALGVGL
- experimental protocol: Adenosine receptor activity assay (Table 1), A2B activity
- Type: biochemical
- test context: A2A activity to A2B activity (A2A/A2B)
measurement label: Ratio

> print(dat)
                                   molecule  observed.result
1  CNc1cc2nc(N[C@@H](C)c3ccccn3)nc(C(=O)N3CC(O)C3)c2s1 [Example Z221]            52.95
2  C[C@H](Nc1nc(C(=O)NC[C@@H](C)O)c2sccc2n1)c1cncc(Cl)c1 [Example Z293]            41.78
3  C[C@H](Nc1nc(C(=O)NC2CC(O)C2)c2sccc2n1)c1ccccn1 (some centres unmarked) [Example Z158]             9.39
4  Cc1ncccc1CNC(=O)c1nc(NCc2cccnc2C)nc2ccsc12 [Example Z88]             1.00
5  C[C@H](Nc1nc(C(=O)N2CC(F)(F)C2)c2sccc2n1)c1ccccn1 [Example Z92]            10.92
6  C[C@H](Nc1nc(C(=O)N2CC[C@H](O)C2)c2sc(N)cc2n1)c1cccnc1 [Example Z196]           102.27
7  C[C@H](Nc1nc(C(=O)N2CC[C@H](O)C2)c2sccc2n1)c1ccccn1 [Example Z58]            15.14
8  COC1CN(C(=O)c2nc(NCc3cncc(F)c3)nc3ccsc23)C1 [Example Z115]            71.92
